FYI, the data here is from PubChem BioAssay AID2060613.

Test system: 233499-124-R-J3-PDC complex spheroid viability;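 further: spheroids exposed to the drug combinations for seven days; percent viability relative to DMSO vehicle control wells taken as 100%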
protocol.details: Anticancer human tumor 233499-124-R-J3-PDC patient-derived colon adenocarcinoma cell line growth inhibition [CLK]
study.conditions: second compound 0.1 µM; first compound 10 µM; active compounds read low
Excerpt: A high-throughput screen of multi-cell type tumor spheroids was designed to identify active combinations of […] and targeted small molecules. Complex spheroids include a stromal component modeled by human endothelial cells (HUVEC) and fibroblasts modeled by human mesenchymal stem cells (MSCs). […] Compounds. […] If the clinical Cmax for an agent had not been determined, the highest concentration tested was 10 microM. […]
assay.readout: viability, T/C (%)
# number only, unit % dropped from output

As a guide, the following entries are already answered.
# compound, viability, T/C / %
data = [
    ("C=CC(=O)N1CCN(c2nc(=O)n(-c3c(C)ccnc3C(C)C)c3nc(-c4c(O)cccc4F)c(F)cc23)C(C)C1 (stereo not given) + CNC(=O)c1ccc(Nc2nc(OC3CCCC3)c3c(-c4ccc5nc(C)oc5c4)c[nH]c3n2)c(OC)c1", 77.5),
    ("CC(CO)NC(=O)c1cc(-c2ccc(Cl)cc2)nn(-c2cnn(C)c2)c1=O (stereo not given) + CNC(=O)c1ccc(Nc2nc(OC3CCCC3)c3c(-c4ccc5nc(C)oc5c4)c[nH]c3n2)c(OC)c1", 61.9),
    ("COc1ccc([C@@H](O)c2cc(-c3ncnc4cc(N5CCOCC5)ccc34)c(F)cc2Cl)nn1 + CN1CCN(c2cc(C(=O)Nc3cc4cc(-c5cnn(C)c5)ccc4cn3)ccn2)CC1", 49.5),
    ("CC(CO)NC(=O)c1cc(-c2ccc(Cl)cc2)nn(-c2cnn(C)c2)c1=O (stereo not given) + CN1CCN(c2cc(C(=O)Nc3cc4cc(-c5cnn(C)c5)ccc4cn3)ccn2)CC1", 80),
]

Lookup result for Nc1ccn(C2OC(CO)C(O)C2(F)F)c(=O)n1 (stereo not given) + CNC(=O)c1ccc(Nc2nc(OC3CCCC3)c3c(-c4ccc5nc(C)oc5c4)c[nH]c3n2)c(OC)c1 ; measured viability, T/C: 18.3
